tested on: KRas-mediated phosphorylation of ERK in H460 cells; test: Inhibition of KRas-mediated phosphorylation of ERK (Cisbio HTRF pERK), H460 cells; assay type: cell-based; details: Homo sapiens, NCI-H460, HTRF pERK
measured.attribute: IC50 (nM)
# output: bare number, implied unit nM

• CCc1c(F)ccc2cc(O)cc(-c3ncc4c(N5CCC[C@@](C)(O)C5)nc(OC[C@]56CCCN5CC(=C(F)F)C6)nc4c3F)c12 (single isomer, unassigned) [Example 919] = 10
• C#Cc1c(F)ccc2cc(O)cc(-c3ncc4c(N5CCCC6(CC(O)C6)C5)nc(OC[C@]56CCCN5[C@H](COC(=O)N(C)C)CC6)nc4c3F)c12 (stereo partly drawn) [Example 835] = 72
• C[C@@H]1C[C@@H]1c1c(Cl)cc(O)cc1-c1ncc2c(N3CCC[C@]4(C3)NC(=O)NC4=O)nc(OC[C@@]34CCCN3C[C@H](F)C4)nc2c1F [Example 932] = 33
• CCc1c(F)ccc2cc(O)cc(-c3ncc4c(N5CCOC[C@]6(CCO6)C5)nc(OC[C@@]56CCCN5C[C@H](F)C6)nc4c3F)c12 [Example 837] = 14

Would you kindly look at the next entry?
Using the record for CCc1c(F)ccc2cc(O)cc(-c3ncc4c(N5C[C@H]6CC[C@@H](C5)[C@@H]6O)nc(OC[C@@]56CCCN5C[C@H](F)C6)nc4c3F)c12 [Example 842] , report its IC50. 20

* * *

test system: KRas-mediated phosphorylation of ERK in MKN1 cells; assay: Inhibition of KRas-mediated phosphorylation of ERK (Cisbio HTRF pERK), MKN1 cells; type: cell-based; conditions: Homo sapiens, MKN-1
IC50 overview
# output: bare number, implied unit nM

// solved cases for IC50 follow
* CCc1c(F)ccc2cc(O)cc(-c3ncc4c(N5CC6CCC(C5)C6CC(=O)NC)nc(OC[C@@]56CCCN5C[C@H](F)C6)nc4c3F)c12 (stereo partly drawn) [Example 863] | 208
* CCc1c(F)ccc2cc(O)cc(-c3ncc4c(N5CCOCC6(CNC(=O)N6)C5)nc(OC[C@@]56CCCN5C[C@H](F)C6)nc4c3F)c12 (stereo partly drawn) [Example 898] | 196

Using the record for CCc1c(F)ccc2cc(O)cc(-c3ncc4c(N5C[C@H]6CC[C@@H](C5)[C@@H]6O)nc(OC[C@@]56CCCN5C[C@H](F)C6)nc4c3F)c12 [Example 842] , report its IC50. 1

* * *

target: KRas^G12D (Homo sapiens, UniProt P01116, G12D); construct: Biotinylated KRas (corresponding to amino acids 1-169, produced at Accelegan Inc.); biotin (biotinylated); purchased Accelegan Inc; assay: KRas binding assay (TR-FRET tracer displacement), KRas G12D
Sequence (P01116 1-169 isoform P01116-2 G12D): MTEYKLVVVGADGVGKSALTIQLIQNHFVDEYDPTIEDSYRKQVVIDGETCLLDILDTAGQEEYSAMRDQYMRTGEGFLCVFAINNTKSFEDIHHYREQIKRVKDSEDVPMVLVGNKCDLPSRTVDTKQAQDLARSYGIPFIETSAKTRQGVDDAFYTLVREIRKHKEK
IC50 overview
# output: bare number, implied unit nM

Using the record for CCc1cccc2cc3[nH]ncc3c(-c3ncc4c(N5CCCC6(CNS(=O)(=O)N6)C5)nc(OC[C@@]56CCCN5C[C@H](F)C6)nc4c3F)c12 (stereo partly drawn) , report its IC50. 7

Using the record for Oc1cc2ccccc2c(-c2ncc3c(N4C[C@@H]5C[C@H](C4)[C@H](O)C5)nc(OC[C@@]45CCCN4C[C@H](F)C5)nc3c2F)c1F , report its IC50. 372

Using the record for CCc1c(F)ccc2cc(O)cc(-c3ncc4c(N5CCC(C)C(F)(F)CC5)nc(OC[C@@]56CCCN5C[C@H](F)C6)nc4c3F)c12 (stereo partly drawn) , report its IC50. 160

Using the record for CCc1c(F)ccc2cc(O)cc(-c3ncc4c(N5CCCn6cnnc6C5)nc(OC[C@@]56CCCN5C[C@H](F)C6)nc4c3F)c12 , report its IC50. 85

Using the record for CCc1c(F)ccc2cc(O)cc(-c3ncc4c(N5CCC[C@@](C)(O)C5)nc(N5CC(N(C)C)C5)nc4c3F)c12 , report its IC50. 72

Using the record for CCc1c(F)ccc2cc(O)cc(-c3ncc4c(N5CCCC(S(=O)(=O)C(F)F)C5)nc(OC[C@@]56CCCN5C[C@H](F)C6)nc4c3F)c12 (stereo partly drawn) , report its IC50. 125

Using the record for CCc1c(F)ccc2cc(O)cc(-c3ncc4c(N5C[C@@H]6OCCN[C@@H]6C5)nc(OC[C@@]56CCCN5C[C@H](F)C6)nc4c3F)c12 , report its IC50. 2030

Recorded values, source patent US20260015350A1.
